subjectOfTest: hCA I (Homo sapiens)
Construct: The hCA I and II isoenzymes used here were purified from human blood as previously described; from tissue; host or cells: human blood
assayName: hCA I inhibition, esterase activity method (4-nitrophenylacetate)
Type: biochemical
testContext: esterase method, 4-nitrophenylacetate, pH 7.4, 25 °C; mean from at least three determinations; read-out: Ki hCA I
pKi: −log10 of the molar value.
measurementName: pKi

Record excerpt, results attached:
COc1cc(C2CC(c3ccc(N)cc3)=NN2C(N)=S)cc(OC)c1OC (stereo not shown) [Compound 6]	7.91
CN(C)c1ccc(C2CC(c3ccc(O)cc3)=NN2C(N)=S)cc1 (stereo not shown) [Compound 10]	7.92
COc1cc(C2CC(c3ccc(Br)cc3)=NN2C(N)=S)cc(OC)c1OC (stereo not shown) [Compound 7]	7.90
COc1cc(C2CC(c3ccc(C)cc3)=NN2C(N)=S)cc(OC)c1OC (stereo not shown) [Compound 8]	7.96
COc1ccc(/C=C/C(=O)c2ccc(N)cc2)cc1OC [Compound 4]	8.01

a: COc1cc(/C=C/C(=O)c2ccc(Br)cc2)cc(OC)c1OC [Compound 2]
b: COc1cc(/C=C/C(=O)c2ccc(C)cc2)cc(OC)c1OC [Compound 3]
For the two items a and b , which reports the higher pKi value? Answer format: the label of the selected item.
a
(a: 8.10, b: 7.77)

====

subjectOfTest: hCA I (Homo sapiens, UniProt P00915)
Construct: The hCA I and II isoenzymes used here were purified from human blood as previously described
Sequence (P00915 whole entry): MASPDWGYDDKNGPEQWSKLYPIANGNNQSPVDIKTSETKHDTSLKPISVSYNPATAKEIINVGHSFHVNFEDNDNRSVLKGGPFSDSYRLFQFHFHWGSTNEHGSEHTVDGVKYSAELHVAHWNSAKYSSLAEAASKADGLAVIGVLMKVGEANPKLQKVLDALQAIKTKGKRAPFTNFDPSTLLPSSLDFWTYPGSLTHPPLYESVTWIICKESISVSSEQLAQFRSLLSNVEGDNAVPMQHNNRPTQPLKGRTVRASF
assayName: hCA I inhibition, esterase activity method (4-nitrophenylacetate)
testContext: against hCA I
measurementName: IC50

Could you tell me which IC50 is on file for COc1cc(C2CC(c3ccc(N)cc3)=NN2C(N)=S)cc(OC)c1OC (centres unmarked) ?
23.9 to 24.4 nM

Could you tell me which IC50 is on file for CN(C)c1ccc(C2CC(c3ccc(O)cc3)=NN2C(N)=S)cc1 (centres unmarked) ?
23.9 to 24.4 nM

====

subjectOfTest: hCA I (Homo sapiens)
Construct: The hCA I and II isoenzymes used here were purified from human blood as previously described; from tissue; host or cells: human blood
assayName: hCA I inhibition, esterase activity method (4-nitrophenylacetate)
Type: biochemical
measurementName: Ki (nM)
Write the number in nM without appending the unit.

CN(C)c1ccc(/C=C/C(=O)c2ccc(O)cc2)cc1 [Compound 5]	8.28

# input for lookup
Could you tell me which Ki is on file for COc1ccc(C2CC(c3ccc(N)cc3)=NN2C(N)=S)cc1OC (centres unmarked) [Compound 9] ?
5.13

====

subjectOfTest: hCA II (Homo sapiens, UniProt P00918)
Construct: The hCA I and II isoenzymes used here were purified from human blood as previously described; from tissue; host or cells: human blood
assayName: hCA II inhibition, esterase activity method (4-nitrophenylacetate)
Format: biochemical
testContext: esterase method, 4-nitrophenylacetate, pH 7.4, 25 °C; mean from at least three determinations; read-out: Ki hCA II
measurementName: Ki (nM)

Record excerpt, results attached:
COc1ccc(C2CC(c3ccc(N)cc3)=NN2C(N)=S)cc1OC (stereo not drawn)	20.4
COc1ccc(/C=C/C(=O)c2ccc(N)cc2)cc1OC	21.5

I: COc1cc(/C=C/C(=O)c2ccc(Br)cc2)cc(OC)c1OC
II: COc1cc(/C=C/C(=O)c2ccc(C)cc2)cc(OC)c1OC
III: CN(C)c1ccc(C2CC(c3ccc(O)cc3)=NN2C(N)=S)cc1 (stereo not drawn)
IV: COc1cc(C2CC(c3ccc(C)cc3)=NN2C(N)=S)cc(OC)c1OC (stereo not drawn)
List from greatest to least Ki. Please, when replying, give the labels in the order that was requested.
II, III, IV, I

Each recorded value in this set is attributed to paper PMC6896446.
